Catalogue of compounds with associated relative viability
Tested on: HCC-78
TEST_PROTOCOL: relative viability (nuclei count vs DMSO), 5 days (fraction); higher = more cells survive
STATED_CONDITIONS: first compound 158.11 µM
Would you mind answering with just the numeric figure?

# COMPOUND, MEASURE, MEASURED_VALUE
records = [
    ("O=C(O)CCCCC(CCSCc1ccccc1)SCc1ccccc1 (stereo not drawn) [CPI-613] + NC(=O)Nc1cc(-c2cccc(F)c2)sc1C(=O)N[C@H]1CCCNC1 [AZD7762] (partner 0.2 µM)", "relative viability", 0.543),
    ("O=C(O)CCCCC(CCSCc1ccccc1)SCc1ccccc1 (stereo not drawn) [CPI-613] + CC(=O)Nc1cccc(-n2c(=O)n(C3CC3)c(=O)c3c(Nc4ccc(I)cc4F)n(C)c(=O)c(C)c32)c1 [Trametinib] (partner 0.02 µM)", "relative viability", 0.714),
]

Below: the item to evaluate.
Give the observed relative viability of O=C(O)CCCCC(CCSCc1ccccc1)SCc1ccccc1 (stereo not drawn) [CPI-613] + COc1cccc2cc(-c3nc([C@H]4CC[C@H](C(=O)O)CC4)n4ncnc(N)c34)[nH]c12 [OSI-027] (partner 0.5 µM) for HCC-78. 0.351
